Biological target: Microtubule-associated protein tau (Homo sapiens)
Experiment: qHTS for Inhibitors of Tau Fibril Formation, Fluorescence Polarization; also: nearly all actives have a fitted effect of over 55% in size
Details: K18 P301L tau heparin fibrillization, Alexa594 FP, 6 h; series mostly up to 57.7 µM
In all, about 280,000 compounds went through this assay and about 1,100 (0.39%) were called active. Inconclusive results (about 7%) are left out. Calls follow the shape of the dose curve; as a rule, active = well fitted inhibition curve with a large enough effect; inconclusive = small, poorly fitted or top-dose-only effect, or effect the other way; inactive = flat fitted curve, though single readings scatter. Many of the other results were omitted from the sample, so actives are more common in it than they were.
Possible outcomes: y for active, n for inactive

• COc1ccccc1/C=C/c1nc(C#N)c(NC(C)c2ccccc2)o1 (stereo unspecified) = n
• Cc1ccc2cccc(NC(=O)c3ccc(OC(C)C)cc3)c2n1 = n
• Nc1ccc2nc3c(=O)[nH]c(=S)[nH]c3nc2c1 = y
• c1ccc2c(Nc3ccncc3)nc(-c3ccoc3)nc2c1 = n
• CSc1nc(-c2ccccc2)nc(C(Cl)Cl)n1 = n
• COc1ccc(NC(=O)CSc2nc3ccccc3[nH]2)cc1 = n
• Oc1cc(O)c2c(c1)OC(c1ccc(O)c(O)c1)C(O)C2 (stereo unspecified) = y
• c1ccc2c(Nc3ccncc3)nc(-c3ccc4c(c3)OCO4)nc2c1 = y
• O=C(NCC(c1cccnc1)N1CCc2ccccc21)c1cccc(C(F)(F)F)c1 (stereo unspecified) = n
• CC(C)Cn1c(=O)c2ccccc2n2c(-c3cccc(Cl)c3)nnc12 = n
• CCCOc1ccc(NC(=O)CC2C(=O)N(c3ccccc3)C(=O)N2Cc2ccco2)cc1 (stereo unspecified) = n
